molecular target: Mannose-6-phosphate isomerase (Homo sapiens); test: MPI inhibition at elevated mannose 6-phosphate – biochemical, fluorescence intensity, high mannose 6-phosphate, primary screen (AID 1220); details: recombinant PMI enzyme, coupled fluorescence intensity; at 20 µM; hits give high values
Out of some 190,000 compounds screened, about 1,300 (0.68%) were called active. The full list was thinned out, with actives kept by preference.
Measured endpoint: inhibition (%)

{"Compound": "CC(=O)Nc1ccc2ccccc2c1", "Tested target": "Mannose-6-phosphate isomerase (Homo sapiens)", "Measured endpoint": "inhibition", "Numeric result": 6.5}
{"Compound": "O=C(Nc1cccc(S(=O)(=O)Nc2ccccc2F)c1)c1ccc2ccccc2n1", "Tested target": "Mannose-6-phosphate isomerase (Homo sapiens)", "Measured endpoint": "inhibition", "Numeric result": 44.1}
{"Compound": "COc1ccc(N=C2C(=O)Nc3ccccc32)cc1", "Tested target": "Mannose-6-phosphate isomerase (Homo sapiens)", "Measured endpoint": "inhibition", "Numeric result": 43}
{"Compound": "Cc1cc(/C=C2\\SC(N)=NC2=O)c(C)n1-c1ccc(F)cc1", "Tested target": "Mannose-6-phosphate isomerase (Homo sapiens)", "Measured endpoint": "inhibition", "Numeric result": 32.4}
{"Compound": "O=c1cc(Nc2ccc3c(c2)OCO3)[nH]c(=O)n1-c1ccc(Br)cc1", "Tested target": "Mannose-6-phosphate isomerase (Homo sapiens)", "Measured endpoint": "inhibition", "Numeric result": 1.9}
{"Compound": "CNc1cccc2c1C(=O)c1ccccc1C2=O", "Tested target": "Mannose-6-phosphate isomerase (Homo sapiens)", "Measured endpoint": "inhibition", "Numeric result": 24.4}
{"Compound": "CCC(C)C(NC(=O)c1ccc(Cl)cc1Cl)C(=O)O (stereo not given)", "Tested target": "Mannose-6-phosphate isomerase (Homo sapiens)", "Measured endpoint": "inhibition", "Numeric result": 1.7}
{"Compound": "O=C(Cc1ccc(Cl)cc1)Nc1cccc(S(=O)(=O)Nc2ccccc2F)c1", "Tested target": "Mannose-6-phosphate isomerase (Homo sapiens)", "Measured endpoint": "inhibition", "Numeric result": 10.4}
{"Compound": "Cc1cc(F)ccc1NCc1ccccc1[N+](=O)[O-]", "Tested target": "Mannose-6-phosphate isomerase (Homo sapiens)", "Measured endpoint": "inhibition", "Numeric result": 70}
{"Compound": "CCNC(=O)/C(=C\\C=C\\c1ccccc1)NC(=O)c1ccc(Br)o1", "Tested target": "Mannose-6-phosphate isomerase (Homo sapiens)", "Measured endpoint": "inhibition", "Numeric result": -11.4}
{"Compound": "Oc1c(Cl)cccc1C=Nc1cc(C(F)(F)F)ccc1N1CCCC1", "Tested target": "Mannose-6-phosphate isomerase (Homo sapiens)", "Measured endpoint": "inhibition", "Numeric result": 7.1}
{"Compound": "CC1(C)C(=O)Nc2ccccc2N1C(=O)COc1cccnc1[N+](=O)[O-]", "Tested target": "Mannose-6-phosphate isomerase (Homo sapiens)", "Measured endpoint": "inhibition", "Numeric result": -1.5}
{"Compound": "Cn1c(=O)[nH]c(=O)c2c1nc(N1CCCC1)n2CC(O)COc1ccccc1 (stereo not given)", "Tested target": "Mannose-6-phosphate isomerase (Homo sapiens)", "Measured endpoint": "inhibition", "Numeric result": 3.3}
{"Compound": "CC(C)/C(=N/Nc1ccccc1[N+](=O)[O-])c1ccccc1", "Tested target": "Mannose-6-phosphate isomerase (Homo sapiens)", "Measured endpoint": "inhibition", "Numeric result": 54.4}
{"Compound": "O=c1cc(Nc2ccc3c(c2)OCCO3)[nH]c(=O)n1-c1ccc(Br)cc1", "Tested target": "Mannose-6-phosphate isomerase (Homo sapiens)", "Measured endpoint": "inhibition", "Numeric result": 57.5}
{"Compound": "O=c1cc(Nc2ccc3c(c2)OCCO3)[nH]c(=O)n1-c1ccc(Cl)cc1", "Tested target": "Mannose-6-phosphate isomerase (Homo sapiens)", "Measured endpoint": "inhibition", "Numeric result": 8}
{"Compound": "CCSc1nnc(NC(=O)CCc2ccc(OC)cc2)s1", "Tested target": "Mannose-6-phosphate isomerase (Homo sapiens)", "Measured endpoint": "inhibition", "Numeric result": 8.9}
{"Compound": "Cc1cc([N+](=O)[O-])ccc1NCc1ccccc1[N+](=O)[O-]", "Tested target": "Mannose-6-phosphate isomerase (Homo sapiens)", "Measured endpoint": "inhibition", "Numeric result": 21.5}
{"Compound": "CN(C)c1cc2c(c(N(C)C)c1)C(=O)c1ccccc1C2=O", "Tested target": "Mannose-6-phosphate isomerase (Homo sapiens)", "Measured endpoint": "inhibition", "Numeric result": 50.3}
{"Compound": "COc1ccc(N/C(C)=C/C(=S)Nc2ccccc2)cc1", "Tested target": "Mannose-6-phosphate isomerase (Homo sapiens)", "Measured endpoint": "inhibition", "Numeric result": 50.1}

----------
biological target: Mannose-6-phosphate isomerase (Homo sapiens) (UniProt P34949); test: MPI inhibition at elevated mannose 6-phosphate – biochemical, fluorescence intensity, high mannose 6-phosphate, primary screen (AID 1220); conditions: recombinant PMI enzyme, coupled fluorescence intensity; at 20 µM; hits give high values
Sequence (P34949 whole entry, looked up): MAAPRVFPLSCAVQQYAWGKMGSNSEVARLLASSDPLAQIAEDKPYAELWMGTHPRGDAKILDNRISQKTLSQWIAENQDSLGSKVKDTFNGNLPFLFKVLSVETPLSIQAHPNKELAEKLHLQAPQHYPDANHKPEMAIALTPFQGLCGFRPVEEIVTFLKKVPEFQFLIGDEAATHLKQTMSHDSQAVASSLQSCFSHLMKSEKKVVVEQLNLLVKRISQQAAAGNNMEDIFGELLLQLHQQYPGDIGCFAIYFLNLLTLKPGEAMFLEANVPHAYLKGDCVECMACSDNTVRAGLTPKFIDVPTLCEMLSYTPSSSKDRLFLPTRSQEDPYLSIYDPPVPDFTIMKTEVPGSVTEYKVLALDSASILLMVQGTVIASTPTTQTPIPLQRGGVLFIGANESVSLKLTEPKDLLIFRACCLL
Out of some 190,000 compounds screened, about 1,300 (0.68%) were called active. Many of the other results were omitted from the sample, so actives are more common in it than they were.
Parameter threshold = 10%. Response is TRUE when inhibition meets or exceeds it, else FALSE.

{"Compound": "COc1cc(N2CCCC2)ccc1[N+](=O)[O-]", "Cat": "TRUE"}
{"Compound": "COC(=O)Cc1c(C)c2ccc(OCC(=O)N(C)C)cc2oc1=O", "Cat": "FALSE"}
{"Compound": "CC(C)(C)CNc1cc(N2CCCC2)ccc1[N+](=O)[O-]", "Cat": "TRUE"}
{"Compound": "CC(CNc1ccccc1O)C(=O)O (stereo not drawn)", "Cat": "TRUE"}
{"Compound": "CCNc1cc(N2CCCC2)ccc1[N+](=O)[O-]", "Cat": "TRUE"}
{"Compound": "O=C(NCc1nc2ccccc2[nH]1)C1=C[C@H](c2ccccc2)C[C@H](OCc2ccc(CO)cc2)O1", "Cat": "TRUE"}
{"Compound": "O=C(Cn1cnc2sc(-c3ccccc3)cc2c1=O)NCc1ccccc1", "Cat": "FALSE"}
{"Compound": "Cc1ccc2cccc(O)c2[n+]1[O-]", "Cat": "TRUE"}
{"Compound": "C=CCc1cc(/C=C2/NC(=S)NC2=O)cc(OC)c1O", "Cat": "TRUE"}
{"Compound": "Oc1cccc2cc3cccc(O)c3c(O)c12", "Cat": "FALSE"}
{"Compound": "O=C(C1CCN(S(=O)(=O)N2CCC3(CC2)OCCO3)CC1)N1CCCCC1", "Cat": "TRUE"}
{"Compound": "CC(C)(C)n1nnnc1SCC(=O)Nc1nn(-c2ccccc2)nc1C(N)=O", "Cat": "FALSE"}
{"Compound": "C=CCc1cccc(C=Nc2cc(Br)ccc2O)c1O", "Cat": "TRUE"}
{"Compound": "C/C(CC(=O)Nc1ccc(Cl)c(C(F)(F)F)c1)=N\\NC(=O)c1cc2ccccc2cc1O", "Cat": "FALSE"}
{"Compound": "Cc1cc(C)c2ccc(C)[n+]([O-])c2c1O", "Cat": "FALSE"}
{"Compound": "COc1ccc(C2Nc3ccccc3C(=O)N2NS(=O)(=O)c2ccc(C)cc2)cc1 (stereo not drawn)", "Cat": "FALSE"}
{"Compound": "Cc1ccc(S(=O)(=O)N2CCOCC2)cc1C(=O)Nc1ccccn1", "Cat": "FALSE"}
{"Compound": "O=[N+]([O-])c1ccc(N2CCCC2)cc1N1CCCC1", "Cat": "TRUE"}

----------
target: Mannose-6-phosphate isomerase (Homo sapiens) (UniProt P34949); assay: MPI inhibition at elevated mannose 6-phosphate – biochemical, fluorescence intensity, high mannose 6-phosphate, primary screen (AID 1220); settings: recombinant PMI enzyme, coupled fluorescence intensity; at 20 µM; hits give high values
Hit rate of the full screen: of about 190,000 compounds, about 1,300 (0.68%) were called active. Many of the other results were omitted from the sample, so actives are more common in it than they were.
Below, each entry is listed with its recorded inhibition.

{"Compound": "COc1ccc(C=O)cc1COc1ccccc1F", "Unit abbrev": "%", "inhibition": 8.1}
{"Compound": "Clc1ccc(-c2cn3cc(Br)ccc3n2)cc1Cl", "Unit abbrev": "%", "inhibition": -15.2}
{"Compound": "N#CC1=C(N)N(c2ccccc2C#N)C2=C(C(=O)CCC2)C1c1ccsc1 (centres undefined)", "Unit abbrev": "%", "inhibition": 19.7}
{"Compound": "OCCNC(=S)Nc1ccc(Oc2ccccc2)cc1", "Unit abbrev": "%", "inhibition": 2.2}
{"Compound": "CCCN1CCN(CCCNC(=O)CCn2nc(-c3ccccc3)ccc2=O)CC1", "Unit abbrev": "%", "inhibition": -12.2}
{"Compound": "CC(/C=N/NC(=O)CSc1nc2ccccc2n1C)=C\\c1ccco1", "Unit abbrev": "%", "inhibition": 58.6}
{"Compound": "COc1ccc(NC(=O)CSc2nnc(-c3cccnc3)n2Cc2ccco2)c(OC)c1", "Unit abbrev": "%", "inhibition": 8}
{"Compound": "CCN(CC)S(=O)(=O)c1ccc(C(=O)OCn2c(SC)nnc(C)c2=O)cc1", "Unit abbrev": "%", "inhibition": 12.1}
{"Compound": "O=C(CSc1nnc(SCc2ccccc2)s1)N/N=C/C=C\\c1ccco1", "Unit abbrev": "%", "inhibition": -23}
{"Compound": "CCNc1nc(NCC)nc(C(=O)NN)n1", "Unit abbrev": "%", "inhibition": -16.1}
{"Compound": "CN(C)N1C(N)=C(C#N)C(c2ccccc2)C2=C1CCCC2=O (centres undefined)", "Unit abbrev": "%", "inhibition": 42.1}
{"Compound": "CCOc1cccc(C2c3c(oc4cc(C)c(C)cc4c3=O)C(=O)N2CCCN(C)C)c1 (centres undefined)", "Unit abbrev": "%", "inhibition": -0.5}
{"Compound": "CN1CCC(N2CCCC(C(=O)O)C2)CC1 (centres undefined)", "Unit abbrev": "%", "inhibition": -1.5}
{"Compound": "COc1ccc2o/c(=N/NC(=S)Nc3ccccc3)c(C(N)=O)cc2c1", "Unit abbrev": "%", "inhibition": 7.1}
{"Compound": "Cc1ccc(NC(=O)c2ccc(-n3cccn3)nc2)cc1", "Unit abbrev": "%", "inhibition": 51.4}
{"Compound": "Cc1cccc(OCCOc2ccccc2C=C(C#N)C#N)c1", "Unit abbrev": "%", "inhibition": 11}
{"Compound": "O=C(NCc1ccccc1)C1=C[C@@H](c2coc3ccccc3c2=O)C[C@@H](OCCCCO)O1", "Unit abbrev": "%", "inhibition": 8.5}
{"Compound": "COc1cccc(/C=N/N2CCOCC2)c1O", "Unit abbrev": "%", "inhibition": 3.6}
{"Compound": "CC(/C=N/NC(=O)c1cc(-c2ccccc2)nc2ccccc12)=C\\c1ccco1", "Unit abbrev": "%", "inhibition": 63.2}
{"Compound": "CC(/C=N/NC(=O)CSc1nnc(SCc2ccccc2)s1)=C\\c1ccco1", "Unit abbrev": "%", "inhibition": 54.7}
{"Compound": "COC(=O)c1cc(S(=O)(=O)n2nc(C)c(Br)c2C)c(Cl)cc1Cl", "Unit abbrev": "%", "inhibition": -5}
{"Compound": "CN(C)/C=C1/Oc2c(ccc3ccccc23)C1=O", "Unit abbrev": "%", "inhibition": 59.2}
{"Compound": "O=C(CCc1ccc(S(=O)(=O)NCCc2ccccc2)cc1)Nc1ccc2c(c1)OCCO2", "Unit abbrev": "%", "inhibition": -3.2}
{"Compound": "COC(=O)c1ccc(N2CCOCC2)c(F)c1", "Unit abbrev": "%", "inhibition": -3.2}
{"Compound": "COc1ccc(S(=O)(=O)NCCOc2ccccc2)cc1-n1cnnn1", "Unit abbrev": "%", "inhibition": 7.4}
{"Compound": "CN(C)c1ccc(/C=N/O)cc1", "Unit abbrev": "%", "inhibition": 44.3}
{"Compound": "COc1ccc(C2C(C#N)=C(N)N(c3ncn[nH]3)C3=C2C(=O)CCC3)cc1 (centres undefined)", "Unit abbrev": "%", "inhibition": 43.2}
{"Compound": "COC(=O)/C=C1\\N/C(=N\\c2nc(C)cc(C)n2)N(c2ccc(C)cc2)C1=O", "Unit abbrev": "%", "inhibition": -5.3}
{"Compound": "O=C(O)/C=C/C(=O)N1CCN(c2ccccc2F)CC1", "Unit abbrev": "%", "inhibition": 2.7}
{"Compound": "CCCNS(=O)(=O)c1ccc(CCC(=O)Nc2ccc3c(c2)OCCO3)cc1", "Unit abbrev": "%", "inhibition": 50.1}
{"Compound": "Cc1ccc(C2C(C#N)=C(N)N(N(C)C)C3=C2C(=O)CCC3)cc1 (centres undefined)", "Unit abbrev": "%", "inhibition": 57.8}
{"Compound": "COc1cccc(OCC(=O)NNC(=S)Nc2ccc(Cl)cc2Cl)c1", "Unit abbrev": "%", "inhibition": 3.7}
{"Compound": "CCCOC(=O)c1ccc(Oc2c(-c3ccc(O)cc3O)n[nH]c2C)cc1", "Unit abbrev": "%", "inhibition": 5.2}
{"Compound": "CC(/C=N/NC(=O)c1cc(-c2ccc(Cl)cc2)nc2ccccc12)=C\\c1ccco1", "Unit abbrev": "%", "inhibition": 11.8}
{"Compound": "Cc1cccc(C)c1NC(=O)CC1SC2=NCCN2C1=O (centres undefined)", "Unit abbrev": "%", "inhibition": 6.8}
{"Compound": "Cc1ccccc1OCCOc1ccccc1C=C(C#N)C#N", "Unit abbrev": "%", "inhibition": 16.3}
{"Compound": "Cc1ccsc1C1C(C#N)=C(N)N(N(C)C)C2=C1C(=O)CCC2 (centres undefined)", "Unit abbrev": "%", "inhibition": 15.7}
{"Compound": "CCN(CC)C(=O)COC(=O)c1cc(-c2ccc(OC)cc2)nc2ccccc12", "Unit abbrev": "%", "inhibition": 7}
{"Compound": "CC(NC(=O)c1cc(-c2ccc(Br)cc2)on1)c1ccccc1 (centres undefined)", "Unit abbrev": "%", "inhibition": -3.3}
{"Compound": "COC(=O)c1c(C)nsc1NC(=O)Oc1ccccc1", "Unit abbrev": "%", "inhibition": 50.4}
{"Compound": "O=C1CCc2cc(S(=O)(=O)NC(C(=O)N3CCN(c4ccccn4)CC3)c3ccccc3)ccc2N1 (centres undefined)", "Unit abbrev": "%", "inhibition": -3.8}
{"Compound": "CCN(CC)c1ccc(/C=N/N2CCN(Cc3ccc(C)cc3C)CC2)c(O)c1", "Unit abbrev": "%", "inhibition": 39.8}
{"Compound": "NS(=O)(=O)c1ccc(C(=O)O)cc1", "Unit abbrev": "%", "inhibition": -8}
{"Compound": "Cc1cc(C)n(C(=O)CSc2nnc(SCC(=O)n3nc(C)cc3C)s2)n1", "Unit abbrev": "%", "inhibition": -11.7}
